Here we gather Ki data for Mcl-1 (Homo sapiens, UniProt Q07820) reported by several publications.
endpoint: Ki (nM)

Field: example entries. Status: answers known.
{"columns": ["molecule", "unit_info", "assay_result"],
 "data": [
  ["Cc1c(C(=O)O)n2c3ccc(Cl)c(c13)-c1c(nn(C)c1C)CN(C)Cc1cc(n(C)n1)CSc1cc3c(c(c1)OCCC2)CCCC3", "nM", 1.5],
  ["CCOC1=CC=CC(=CNn2c(-c3ccccc3Cl)nc3ccccc3c2=O)C1=O", "nM", 193]
]}

(I) NS(=O)(=O)c1ccc(CNC(=O)c2ccc(CN(Cc3ccc(F)cc3)S(=O)(=O)c3cc(Cl)cc(Cl)c3O)cc2)cc1
(II) O=C(c1cccc(CN(Cc2ccc(F)cc2)S(=O)(=O)c2cc(Cl)cc(Cl)c2O)c1)N(Cc1ccc(F)cc1)Cc1cc(Cl)cc(Cl)c1
Hi! Which is lower in terms of Ki, the first one I or the second one II ? Pick one and reply with its label.
II

(a) Cc1c(C(=O)O)n2c3ccc(Cl)c(c13)-c1c(nn(C)c1C)CSCc1cc(n(C)n1)CSc1cc(cc3c1CCC3)OCCC2
(b) CC(C)CN(Cc1cccc(CN(Cc2ccc(-c3ccc(F)cc3)cc2)S(=O)(=O)c2cc(Cl)cc(Cl)c2O)c1)C(=O)c1ccc2[nH]c(=O)c(=O)[nH]c2c1
Hi! Which is lower in terms of Ki, the first one a or the second one b ? Your choice should be expressed through its label.
a
(a: 0.22 nM, b: 550 nM)

(a) CCOC(=O)c1c(C)oc2c1c(C(c1ccncc1)N1CCN(C(C)C)CC1)c(O)c1ccccc12 (stereo not drawn)
(b) CC(C)CN(Cc1cc(Cl)cc(CN(CC(C)C)S(=O)(=O)c2cc(Cl)cc(Cl)c2O)c1)C(=O)c1cccc(SC(F)(F)F)c1
(c) CC1(C)CCC(CN2CCN(c3ccc(C(=O)NS(=O)(=O)c4ccc(NCC5CCOCC5)c([N+](=O)[O-])c4)c(Oc4ccc5[nH]ccc5c4)c3)CC2)=C(c2ccc(Cl)cc2)C1
(d) Cc1c(C(=O)O)n2c3ccc(Cl)c(c13)-c1c(nn3c1CCCC3)CN(C)Cc1cc(n(C)n1)CSc1cc(c3ccccc3c1)OCCC2
Give the ascending ranking of the items by reported Ki. Order the labels as requested and list them.
d, a, c, b
(d: 3 nM, a: 15 nM, c: 111 nM, b: 1150 nM)
